Test system: RXF 393
Test: NCI tumour cell line growth inhibition, 48 h
Activity calls are given as the source filed them. No stated cut-off is given here; in the data, active = GI50 up to about 1.1 µM and inactive = higher.
Choose one outcome from this list and give only that: class 1 for active, class 0 for inactive

molecule	test_target	assigned_label
C/C=C(/C)C(=O)O[C@H]1[C@H](O)CC(c2ccc3c(c2O)C(=O)C2=C(O)C4(OC)C(=O)C(C(N)=O)=C(O)[C@H](CC(=O)c5ccccc5O)C4CC2[C@@]3(C)OC)O[C@@H]1C (stereo partly drawn)	RXF 393	class 1
CCSC1=N/C(=C\c2ccc(N(C)C)cc2)C(Cl)=N1	RXF 393	class 0

Attention now turns to another entry.
What call does the record list for "CC(C)=CC(=O)CC(=O)C(=O)NCCNC(=O)C(=O)CC(=O)C=C(C)C" ?
class 0

----------
Tested on: CCRF-CEM
Assay: NCI tumour cell line growth inhibition, 48 h
Calls of active or inactive are those of the source. No stated cut-off is given here; in the data, active = GI50 up to about 1.1 µM and inactive = higher.
endpoint_label: GI50

                                   compound          assay_value
0  OC1c2[nH]c3ccccc3c2CCN2CCCCC12 (centres undefined)  > 100 µM (inactive)
1  Cc1cc(OC(=O)Nc2cccc3ccccc23)c(C(C)C)cc1C(=S)Nc1ccccc1    7.6 µM (inactive)
2   N#Cc1c(N)nc(Nc2cccc3ccccc23)c(C#N)c1C#N   2.32 µM (inactive)

// returns reported GI50 for input "Clc1cc(-c2csc(Cl)c2)cs1"
> 100 µM (inactive)

----------
In this section we review reported GI50 values for a set of compounds.
System: OVCAR-8
Test: NCI tumour cell line growth inhibition, 48 h
Activity calls are given as the source filed them. Rule as the data show it: active = GI50 up to about 1.1 µM and inactive = higher.

// returns reported GI50 for input "O=C1C=C(N2CCN(CCOCCO)CC2)C(=O)c2c(O)ccc(O)c21"
3.44 µM (inactive)

// returns reported GI50 for input NC(CCCCO)C(=O)O (stereo not drawn)
> 100 µM (inactive)

// returns reported GI50 for input "CC(=O)Oc1cc(S(=O)(=O)Nc2nc(N)n[nH]2)c(S)cc1Cl"
> 100 µM (inactive)

// returns reported GI50 for input COC(=O)C(NC(=O)c1ccccc1)C(c1c(O)cc(O)cc1O)P(=O)(OC)OC (stereo not drawn)
> 100 µM (inactive)

// returns reported GI50 for input "O=C1CCSc2nc(-c3ccc4c(c3)OCO4)nn21"
> 10 µM (inactive)

// returns reported GI50 for input "COC(=O)c1nn(-c2ccccc2)c(=O)cc1N=[N+]=[N-]"
> 100 µM (inactive)

// returns reported GI50 for input "Cc1ccc(-c2n[nH]c(=O)n2/N=C\c2ccccc2)cc1"
53.1 µM (inactive)

// returns reported GI50 for input "CC(C)C(=O)N[C@@H](C)C(=O)N(Cc1ccc2ccccc2c1)N=O"
> 100 µM (inactive)

// returns reported GI50 for input [O-][N+]1=C2CCC/C(=N/O)C2(O)C2CCCCC21N1CCOCC1 (stereo not drawn)
> 100 µM (inactive)

// returns reported GI50 for input "O=[N+]([O-])/C(C(Cl)=C(Cl)Cl)=C1\NCCS1"
47.2 µM (inactive)

// returns reported GI50 for input "C1COCCN1.CN(C)c1ccc(-c2c(C#N)c(N)nc(S)c2C#N)cc1"
> 100 µM (inactive)

// returns reported GI50 for input "COc1cccc(Cc2cc(=O)c3ccc(C)nc3[nH]2)c1"
> 100 µM (inactive)

// returns reported GI50 for input "C=C(C(N)=O)c1ccc([N+](=O)[O-])o1"
2.9 µM (inactive)

// returns reported GI50 for input CN(C)C(=S)S [SODIUM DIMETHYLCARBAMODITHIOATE]
> 52.5 µM (inactive)

// returns reported GI50 for input "Clc1ncc(Cl)c(Cl)n1"
3.86 µM (inactive)

----------
In this section we review reported GI50 values for a set of compounds.
Test system: UACC-257
Experiment: NCI tumour cell line growth inhibition, 48 h
Activity calls are given as the source filed them. Rule as the data show it: active = GI50 up to about 1.1 µM and inactive = higher.

// returns reported GI50 for input O=C1C(Cl)C(c2cccc([N+](=O)[O-])c2)N1n1cnc2ccccc2c1=O (stereo unspecified)
55.2 µM (inactive)

// returns reported GI50 for input "Cc1nc2c(-c3ccccc3)[nH]c(C)c2c(=O)o1"
> 100 µM (inactive)

----------
In this section we review reported GI50 values for a set of molecules.
Tested on: NCI-H460
Assay: NCI tumour cell line growth inhibition, 48 h
Active and inactive are the calls of the source. No stated cut-off is given here; in the data, active = GI50 up to about 1.1 µM and inactive = higher.

The examples below pair each entry with its known result.
                               smiles_entry  endpoint_label          assay_value
0  CNC(=O)OCc1c(COC(=O)NC)c(C)n(-c2ccc(Br)cc2)c1C            GI50    8.2 µM (inactive)
1  Cc1ccc(NC(=O)CCc2cc(C(C)(C)C)nc(S)n2)cc1C            GI50  > 100 µM (inactive)
2    O=[N+]([O-])/C(C(Cl)=C(Cl)Cl)=C1\NCCS1            GI50   83.9 µM (inactive)

// returns reported GI50 for input "CCCCCCCCCCCC(=O)CC(=O)c1c(O)cccc1O"
19 µM (inactive)

----------
Tested on: SF-539
Experiment: NCI tumour cell line growth inhibition, 48 h
Calls of active or inactive are those of the source. Rule as the data show it: active = GI50 up to about 1.1 µM and inactive = higher.
In this section we review reported GI50 values for a set of compounds.

The examples below pair each entry with its known result.
                                   compound  test_target          assay_value
0         O=C1CCSc2nc(-c3ccc4c(c3)OCO4)nn21       SF-539   > 10 µM (inactive)
1  COc1ccc(C(=O)O/N=C2\CCCC\C2=C/c2ccccc2)cc1       SF-539   27.5 µM (inactive)
2  Oc1c(C(Nc2cccc3cccnc23)c2ccccc2)ccc2cccnc12 (stereo not drawn)       SF-539   3.65 µM (inactive)
3          C=C(C(N)=O)c1ccc([N+](=O)[O-])o1       SF-539   12.6 µM (inactive)
4           Fc1cccc2c1cc1ccc3cccc4ccc2c1c34       SF-539  > 100 µM (inactive)

What reported GI50 corresponds to CCOC(=O)C(NC(=O)c1ccccc1)(Nc1ccc(S(=O)(=O)Nc2nc(C)cc(C)n2)cc1)C(F)(F)F (stereo not drawn) on SF-539?
> 100 µM (inactive)

What reported GI50 corresponds to "NS(=O)(=O)c1nc(S(=O)(=O)O)c2[nH]cnc2n1" on SF-539?
> 100 µM (inactive)

What reported GI50 corresponds to "Cc1ccc(C2=NO[C@@H]3C(=O)N(c4ccc(Cc5ccc(N6C(=O)[C@H]7C(c8ccc(C)cc8)=NO[C@H]7C6=O)cc5)cc4)C(=O)[C@H]23)cc1" on SF-539?
> 100 µM (inactive)

----------
Tested on: MOLT-4
Assay: NCI tumour cell line growth inhibition, 48 h
Calls of active or inactive are those of the source. No stated cut-off is given here; in the data, active = GI50 up to about 1.1 µM and inactive = higher.
endpoint_label: GI50

The examples below pair each entry with its known result.
>>> df
                                   molecule  test_target  endpoint_label          assay_value
0  Cc1cc(NCCCCCCNc2cc(C)nc3cc(N(C)C)ccc23)c2ccc(N(C)C)cc2n1       MOLT-4            GI50    6.9 µM (inactive)
1                   Cc1nc2cc(N)c(F)cc2[nH]1       MOLT-4            GI50  > 100 µM (inactive)
2  C=C(C)C(O)CCC1(C)C=Cc2c(c(C)cc3c2[nH]c2ccccc23)O1 (centres undefined)       MOLT-4            GI50   5.75 µM (inactive)

Next item in the queue.
// returns reported GI50 for input O=c1[nH]c(=O)n(C2CC(O)C(CO)O2)cc1C1=NC1 (centres undefined)
> 100 µM (inactive)

----------
In this section we review reported GI50 values for a set of compounds.
Test system: OVCAR-8
Assay: NCI tumour cell line growth inhibition, 48 h
The source made the active and inactive calls. Rule as the data show it: active = GI50 up to about 1.1 µM and inactive = higher.

>>> df
                             compound          assay_value
0  O=C1C[C@@H]2[C@@H](C=CC23CCCC3)N1O  > 100 µM (inactive)

Next item in the queue.
What reported GI50 corresponds to "O=S(=O)(N=S(c1ccccc1)c1ccccc1)c1ccccc1" on OVCAR-8?
> 100 µM (inactive)

----------
In this section we review reported GI50 values for a set of molecules.
System: HCC 2998
Assay: NCI tumour cell line growth inhibition, 48 h
Calls of active or inactive are those of the source. No stated cut-off is given here; in the data, active = GI50 up to about 1.1 µM and inactive = higher.

                                   molecule        assay_value
0  Cc1ccc2c(c1)c(=O)c1c(NCCN(C)C)ccc3nnn2c31  3.4 µM (inactive)

// returns reported GI50 for input "O=C1CCC2=C(CCC2)N1CCc1ccc2c(c1)OCO2"
> 100 µM (inactive)

// returns reported GI50 for input COc1ccc(SC(C)(SC)c2ccccn2)c(OC)n1 (stereo not drawn)
> 100 µM (inactive)
